Data origin, for the record: ChEMBL document CHEMBL5665443

molecular target: Endonuclease 8-like 1 (Homo sapiens) (UniProt Q96FI4); settings: Compound Concentration 10.0 uM, Hit No;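 further: fluorescence at 594 nm from quenched duplex DNA oligonucleotides released by NEIL1 cleavage and strand separation, reported as reduction of this enzyme activity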
Sequence (Q96FI4 whole entry): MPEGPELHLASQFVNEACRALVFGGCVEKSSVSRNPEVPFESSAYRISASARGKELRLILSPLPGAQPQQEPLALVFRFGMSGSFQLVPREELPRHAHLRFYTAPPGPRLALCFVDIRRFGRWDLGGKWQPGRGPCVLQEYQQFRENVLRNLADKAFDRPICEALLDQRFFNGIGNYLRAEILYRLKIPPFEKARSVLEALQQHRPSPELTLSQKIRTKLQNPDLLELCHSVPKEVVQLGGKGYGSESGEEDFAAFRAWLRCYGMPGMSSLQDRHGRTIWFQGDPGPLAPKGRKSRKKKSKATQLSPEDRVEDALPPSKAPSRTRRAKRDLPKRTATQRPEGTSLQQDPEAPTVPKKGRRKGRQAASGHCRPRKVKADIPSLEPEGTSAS
Description: Inhibition of NEIL1 by quantifying inhibition of NEIL1-mediated cleavage and dissociation of quenched duplex DNA oligonucleotides, measured as fluorescence at 594 nm.

Smiles text	inhibition / %
Nc1nc(Nc2ccccc2)nc2c1ncn2[C@@H]1O[C@H](CO)[C@@H](O)[C@H]1O	-6.51
O=c1ccn([C@@H]2O[C@H](COP(=O)(O)OP(=O)(O)O)[C@@H](O)[C@H]2O)c(=O)[nH]1	-1.39
Cc1cn([C@@H](C)CC#N)c(=O)c2cc(Cn3nc(C(F)F)cc3Cl)nn12	-0.442
CNC(=O)COc1cc2cc(Nc3nc(N4C[C@H](C)C[C@H](C)C4)ncc3Cl)ccc2n(C)c1=O	-7.56
Cn1c(=O)n(CCCO)c(=O)c2c1nc(Oc1cccc(Cl)c1)n2Cc1ccc(Cl)cc1	2.53
Cn1c(SCc2ccc(C(C)(C)C)cc2)nc(N)cc1=O	-0.435
Cn1nc(C(=O)NCc2ccc(C(=O)O)cc2)cc1-c1ccc2[nH]ccc2c1	1.38
O=C(NCc1ncc(C(F)(F)F)cc1Cl)c1ccc2c(c1)C1(CCS(=O)(=O)CC1)[C@@H](C1CC1)N2S(=O)(=O)c1ccc(F)cc1	-9.38
Cn1cc(Cl)c2c(Oc3c(F)cc(Nc4cc(Cl)nc(N)n4)cc3F)ccnc21	4.86

----------
biological target: DNA-3-methyladenine glycosylase (Homo sapiens); conditions: Compound Concentration 10.0 uM, Hit No;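 further: enzyme assay where MPG cuts a quenched duplex DNA oligonucleotide probe, paired with APE1 for strand incision and turnover, read as fluorescence at 594 nm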
Description: Inhibition of MPG by quantifying inhibition of MPG-mediated cleavage and dissociation of quenched duplex DNA oligonucleotides, measured as fluorescence at 594 nm. To generate a functional strand incision and increase turn-over this assay is coupled to APE1.
The molecules listed here are annotated with their inhibition.

Molecule	inhibition / %
CC[C@@H](C[C@H]1COC(N)=N1)c1ccccc1	-5.21
CCCCc1oc2ccccc2c1C(=O)c1cc(I)c(OCCN(CC)CC)c(I)c1	5.3
COC(=O)[C@H]1[C@H]2C[C@H]3c4[nH]c5ccccc5c4CCN3C[C@H]2CC[C@@H]1O	14.5
CNc1nc(Nc2ccccc2)nc(OC(C(F)(F)F)C(F)(F)F)n1	-9.6
FC(F)(F)Oc1ccc(-c2ccc3nnc(C(F)(F)F)n3c2)cc1	7.52
CCOC(=O)c1cc(C#N)c(N2CCC(C(=O)NS(=O)(=O)Cc3ccccc3)CC2)nc1C	0.797
CC(C)(C)NCC(O)COc1cccc2[nH]c(=O)[nH]c12 (stereo not given)	4.34
CCCC(=O)N[C@@H](Cc1ccc(O)cc1)C(=O)NCCCCCCCNCCCCN	2.86
C[C@@H](CN1CCC(Cc2ccccc2)CC1)[C@@H](O)c1ccc(O)cc1	-5.23
COCc1nc2cnc3cc(-c4c(C)noc4C)c(OC[C@H]4CCNC4)cc3c2n1[C@H](C)c1ccccc1	-8.22

----------
The molecules listed here are annotated with their inhibition.
Target: Single-strand selective monofunctional uracil DNA glycosylase (Homo sapiens);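 further: enzymatic SMUG1 assay coupled with APE1, reading fluorescence at 594 nm released when a quenched double-stranded DNA oligonucleotide substrate is cleaved and separated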
Sequence (whole entry): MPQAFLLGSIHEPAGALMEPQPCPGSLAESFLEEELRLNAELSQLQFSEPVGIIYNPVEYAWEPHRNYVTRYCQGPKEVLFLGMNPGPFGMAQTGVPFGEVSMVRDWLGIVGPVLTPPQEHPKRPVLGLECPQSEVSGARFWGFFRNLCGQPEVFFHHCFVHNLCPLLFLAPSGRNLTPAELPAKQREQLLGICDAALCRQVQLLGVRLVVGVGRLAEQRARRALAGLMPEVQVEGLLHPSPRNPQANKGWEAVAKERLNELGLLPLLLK
Settings: Compound Concentration 10.0 uM, Hit No
Description: Inhibition of SMUG1 by quantifying inhibition of SMUG1-mediated cleavage and dissociation of quenched duplex DNA oligonucleotides, measured as fluorescence at 594 nm. To generate a functional strand incision and increase turn-over this assay is coupled to APE1.

Molecule	inhibition [%]
N#Cc1c[nH]c2c(C(=O)N3CCN(CCc4ccc(F)cc4)CC3)cccc12	-8.12
CCCCC[C@H](O)/C=C/[C@@H]1[C@@H](C/C=C\CCCC(=O)O)[C@@H](O)C[C@H]1O	8.11
CCOc1ccccc1C(=O)NCC1(N2CCN(CC)CC2)CCCCC1	-8.6
CC(=O)N1CCC(c2ccc(C(=O)NC(=N)N)cc2C(F)(F)F)CC1	16.4
Cn1cncc1[C@@](O)(COc1ccc(C#N)cc1-c1ccc(OC(F)(F)F)cc1)c1ccc(C#N)cc1	-1.81
COc1ccc(S(=O)(=O)c2cc(OC)ccc2S(=O)(=O)c2ccc([C@H](C)NS(C)(=O)=O)cc2)cc1	4.18
CC(=O)Nc1ncc(CN2CCC[C@H](Cc3cc(C)nc(C)c3)C2)s1	18.4
CN[C@@H](C)C/C=C/c1cncc(OC(C)C)c1	-1.2
CN1C[C@H](C(=O)N[C@]2(C)O[C@@]3(O)[C@@H]4CCCN4C(=O)[C@H](Cc4ccccc4)N3C2=O)C[C@@H]2c3cccc4[nH]cc(c34)C[C@H]21	0.306
O=C(O)C1CN(Cc2ccc(OCc3ccc(Cl)c(Cl)c3)cc2)C1	12.8
Clc1cccc(COc2cncc(N3CCNCC3)n2)c1	1.71
Cc1c(C(=O)Nc2ccc(N3C[C@@H](C)O[C@@H](C)C3)nc2)cccc1-c1ccc(OC(F)(F)F)cc1	-0.0333
Cc1cccc(S(=O)(=O)N(C)[C@H](C)CCN2CCC(C)CC2)c1	1.46
CNC1(C)C2CCC(C2)C1(C)C (stereo not given)	1.51
CC(COc1ccccc1)N(CCCl)Cc1ccccc1 (stereo not given)	-8.75
Clc1ccc(-c2nc3sccn3c2/C=N/OCc2ccc(Cl)c(Cl)c2)cc1	12
NS(=O)(=O)c1c(Cl)ccc(NC(=O)Nc2cccc(Cl)c2Cl)c1O	8.49
COc1cc(C(=O)NS(=O)(=O)c2ccccc2C)ccc1Cc1cn(C)c2ccc(NC(=O)OC3CCCC3)cc12	24
C[C@H](c1ccnc(Nc2nc3ccc(-c4cc(N(C)C)ncn4)cc3[nH]2)c1)N1CCN(C(=O)CC(F)(F)F)CC1	11.6
OC(CN1CCC(Cc2ccc(F)cc2)CC1)c1ccc(Cl)cc1 (stereo not given)	-3.86
